Recorded values, source PubChem BioAssay (NCI).

tested on: 786-0 renal; experiment: NCI-60 one-dose screen, 48 h (100 = growth as untreated, 0 = no growth, -100 = all killed); settings: 10 µM unless noted
This is part of a sample that, as a whole, favours compounds with a hit. Of some 83,000 tested, about 20% had one in any assay.
assay-metric: growth (%)
Give bare numbers, in %.

Please review the following examples before continuing.
{"columns": ["molecule", "assay-result"],
 "data": [
  ["CC(C)(C)n1cc(-c2ccnc(NCCCNS(=O)(=O)c3cccc(F)c3)c2)c(-c2cccc(O)c2)n1", 29.5],
  ["O=C(O)c1cn(C2CC2)c2cc(N3CCN(C(=O)/C=C/c4ccc(Cl)cc4)CC3)c(F)cc2c1=O", 76.4],
  ["C=CCn1c2ccccc2c2c3c(c4c5ccccc5n(CC=C)c4c21)C(=O)N(O)C3=O", 15.1],
  ["CC(=O)c1cc2c(N)c(C(=O)Nc3cccc4c3OCCO4)sc2nc1C", 97.9],
  ["NC(N)=N/N=C/c1ccc(-c2ccc(-c3cc(Cl)cc(Cl)c3)s2)cc1", -83.5],
  ["N/C(=N\\C(N)=N\\c1nc2ccccc2s1)c1ccncc1", 73.9],
  ["COc1ccc(-c2[nH]nc(N)c2-c2cc(OC)c3c(c2)OCO3)cc1", 77.6],
  ["CC1(c2ccc(Cl)cc2)OC(=O)CC(=O)O1", 111]
]}

List the reported growth of each molecule below.
1. C=C(C)[C@@H]1CC[C@]2(C(=O)N3CCNCC3)CC[C@]3(C)[C@H](CC[C@@H]4[C@@]5(C)C/C(=C/c6ccncc6)C(=O)C(C)(C)[C@@H]5CC[C@]43C)[C@@H]12
2. C/C(=C\c1ccc(OCC(=O)O)c(Cl)c1Cl)[N+](=O)[O-]
3. ClC(Cl)c1nc(-c2ccccc2)nc2cc(-c3ccccc3)nn12
4. CC(=O)Nc1ccc(/C=C/C(=O)c2ccccc2)cc1
5. C[n+]1c(/C=C/c2c(O)ccc3ccccc23)ccc2ccccc21
6. N#Cc1c(Nc2ccccc2)nc2n(c1=O)-c1ccccc1Sc1ccccc1-2
7. CN(C[C@H]1Cc2c(cccc2N2CCN(c3ncccn3)CC2)CN1)[C@H]1CCCc2cccnc21
8. C=C1CCC[C@]2(C)CCC[C@H](C)[C@@H](OC(C)=O)[C@@H]3OC(=O)C(=C)[C@@H]3C[C@H]1O2

RESULT:
[108, 117, 80.1, 98.5, 49.2, 90.2, 39.5, 91.3]

Hi, could you look up growth for each item in my list?
1. CSc1nc2c(c(=O)[nH]1)C(c1ccc(C)cc1)C=C(C(=O)O)N2 (stereo not given)
2. O=C(c1ccccc1)C1OC1c1ccc([N+](=O)[O-])cc1 (stereo not given)
3. COc1ccc(Nc2[nH]n3c(=O)cc(-c4ccccc4)nc3c2C(=O)Nc2ccc(C)cc2)c(OC)c1
4. COc1ccccc1CNCCCN1C(=O)c2ccc3c4c(ccc(c24)C1=O)C(=O)N(CCCNCCCCNCCCN)C3=O
5. CN1C(=O)N(C)C2C1NN=c1s/c(=C\c3cccnc3)c(=O)n12 (stereo not given)
6. COc1ccc(Nc2ncccc2C(=O)NCc2cn(Cc3cccc(Oc4ccccc4)c3)nn2)cc1
7. Clc1cc(Cl)c2nc(-c3ccc(-c4ccc(/C=N/NC5=NCCN5)cc4)s3)cn2c1

RESULT:
1. 104
2. 83.3
3. 92.7
4. 3.83
5. 96.5
6. 51.3
7. 88.5

====

test system: HOP-62 NSCLC; experiment: NCI-60 one-dose screen, 48 h (100 = growth as untreated, 0 = no growth, -100 = all killed); details: 10 µM unless noted
This is part of a sample that, as a whole, favours compounds with a hit. Of some 83,000 tested, about 20% had one in any assay.
Record form. Attribute: growth. Fill in for each entry.
Numbers only, in %.

Quick request: growth for each listed item, please.
1. Clc1cc(Cl)c2nc(-c3ccc(-c4ccc(/C=N/NC5=NCCN5)cc4)s3)cn2c1
2. COc1cc(Cn2cc3c(c2)-c2oncc2CC3)cc(OC)c1OC
3. Fc1ccccc1-c1nc(-c2nc3cc(Cl)c(Cl)cc3[nH]2)c2ccccn12
4. CCN(CC)CCCC(C)Nc1c2ccc(Cl)cc2nc2cc(OC)c(OC)cc12 (configuration not stated)
5. CC1CCC(C)N(C)C1 (configuration not stated)
6. O=C(NS(=O)(=O)c1ccc2ccccc2c1)n1cc(-c2ccncc2)c(-c2ccc(Cl)c(O)c2)n1
7. O=C(O)c1nc(-c2ccccc2)oc1N1CCOCC1

RESULT:
88.9
42.1
68.8
32.3
107
92.1
97

Hey, quick one: what's growth for each of these?
1. CN(CCCCN(C[C@H]1Cc2ncccc2CN1)[C@H]1CCCc2cccnc21)C1CCC(F)(F)CC1
2. Cc1ccc(-c2cc3nc(C(Cl)Cl)nc(-c4cccnc4)n3n2)cc1

RESULT:
[68.2, -8]

The following molecules each have a reported value; give each one's growth.
1. CCOC(=O)NNC(=S)Nc1ccccc1
2. C=C[C@@H]1C[C@@H]2Cc3ccccc3N1O2

RESULT:
1. 102
2. 96.6

I have 6 molecules here; please give me growth for each one.
1. CC(C)C(C(=O)NCCN1CCOCC1)N1C(=O)/C(=C/c2ccc(Br)cc2)SC1=S (configuration not stated)
2. Clc1cc2c(nn1)Nc1ccccc1S2
3. CC(C)(C)n1cc(-c2ccnc(NCCCNS(=O)(=O)c3cccc(F)c3)c2)c(-c2cccc(O)c2)n1
4. Nc1ncnc2c1c(-c1ccc(Oc3ccccc3)cc1)nn2C[C@@H]1SSC[C@@H]1O
5. Cn1ccc(Nc2nccc(Oc3ccc(C(=O)Nc4cccc(F)c4)c(Cl)c3)n2)c1
6. O=C(CCl)N(C1CCCCC1)C1CCCCC1

RESULT:
1: 104; 2: 97.5; 3: 73.8; 4: 48.8; 5: 100; 6: 119

====

system: SK-OV-3 ovarian; assay: NCI-60 one-dose screen, 48 h; details: 10 µM unless noted
The panel holds about 83,000 compounds, 20% with a hit somewhere; the sample as a whole holds those more often. Active and inactive are the calls of the source. The calls were made as follows: active = growth percent below 10; inactive = the rest.
Mark one answer only. Choices: class 1 = active, class 0 = inactive

{"columns": ["compound", "label-class"],
 "data": [
  ["CN1CCN(Cc2ccc(NC(=O)c3cncc(C#Cc4cnc(N)c5ccncc45)c3)cc2C(F)(F)F)CC1", "class 1"],
  ["COc1ccc(C(=O)N2NC(=O)/C(=C/c3ccc(Br)cc3)N=C2c2ccccc2)cc1", "class 0"],
  ["COc1ccc(-c2nc3sccn3c2/C=C/C(=O)c2cc(F)cc(F)c2)cc1", "class 0"]
]}

QUERY: How was CCO/C=N/C1=C(C#N)C(c2ccc(Cl)cc2)c2c(c3ccc(C)cc3[nH]c2=O)O1 (stereo unspecified) classified in this test?
RESULT: class 0

QUERY: Kindly provide the recorded test outcome for the following compound: "Brc1cccc(-c2cc(-c3ccc4c(c3)OCCCO4)[nH]n2)c1"
RESULT: class 0

QUERY: How did this test come out for "O=C(/C=C/c1c[nH]c2ccccc12)c1ccc(O)c(CN2CCN(c3ccc(F)cc3)CC2)c1" ?
RESULT: class 0

QUERY: Returns: the outcome recorded for CCN(CC)CCC(CNc1c2ccc(Cl)cc2nc2ccc(OC)cc12)c1ccccc1 (stereo unspecified) in this assay.
RESULT: class 0

====

test system: COLO 205 colon; assay: NCI-60 one-dose screen, 48 h (100 = growth as untreated, 0 = no growth, -100 = all killed); settings: 10 µM unless noted
About 83,000 compounds went through this panel and 20% of them were active in at least one assay; those are over-represented in the sample as a whole.
Exercise: state measured growth for each of the compounds provided.
Answers are plain numbers, in %.

The following compounds have reported results that may help.
{"columns": ["compound", "unit-label", "growth"],
 "data": [
  ["COc1c2occc2c(OC)c2c(=O)c(-c3cc(-c4ccc(F)cc4)c(C#N)c(N)n3)c(C)oc12", "%", 27.2],
  ["COc1ccc(-c2ccc(-c3ccc(C(=N)N)cn3)s2)cc1OC", "%", 103],
  ["Cc1cc(C2=NNC(=O)Cc3cc4c(cc32)OCCO4)cc(C)c1N", "%", 9.99],
  ["S=c1[nH]nc(-c2cc3ccc2CCc2ccc(cc2)CC3)n1-c1ccccc1", "%", 106],
  ["O=C1NC(=C(Cl)Cl)/C(=N/S(=O)(=O)N2CCC(C3(C(F)(F)F)N=N3)CC2)N1", "%", 26],
  ["O=S(=O)(c1ccc(OCCO)cc1)c1ccc(OCCO)cc1", "%", 132],
  ["CCCCOc1ccc(/C=C2/SC(N3CCCC3)=NC2=O)cc1", "%", 104],
  ["CC(NNC(C)c1ccccc1)c1ccccc1 (stereo not given)", "%", 105]
]}

For each of the compounds below, note its growth.
1. Cc1ccc(CSC(=N)N)cc1C
2. C=C(C)[C@@H]1CC[C@]2(C(=O)O)CC[C@]3(C)[C@H](CC[C@@H]4[C@@]5(C)C[C@@H](CC#Cc6ccc(C(F)(F)F)cc6)[C@H](O)C(C)(C)[C@@H]5CC[C@]43C)[C@@H]12

RESULT:
1: 107; 2: 21.1
